Listing of recorded fold reactivity over background by entry.
# testedOn: recombinant HA of influenza B virus B/Mass/12 (Yamagata clade) (influenza B virus B/Mass/12 (Yamagata …))
# experimentalProtocol: recombinant HA ELISA (AttoPhos fluorescence, mean of triplicates)
Field note: include the unit after the figure.

TRL579 (antibody, V domains shown) VH: QVQLVQSGAEVKKPGASVKVSCKTSGYTFTAYTIHWVRQAPGQRLEWMGWINAGNGHTKYSQRFKGRVTITRDTSARTTYMELRSLTSEDTALYFCARGPETYYYDKTNWLNSHPDEYFQHWGHGTQVTVSS VL: DIQMTQSPSTLSASVGDRVTITCRASQTINNYLAWYQQKPGKAPKLLIYKASSLESGVPSRFSGSGSGTEFTLTISSLQPDDFATYYCQEYNNDSPLTFGGGTKVEIKR :: 3.2 fold over background
TRL832 (antibody, V domains shown) VH: QVQLVESGPGLMKPSETLSLTCTVSGGSVSNYYWSWIRQPPGKGLEWIGYVFYSGSSNYNPSLNNPSLKSRVTISIDTSNNQFSLKLSSVTAADTAVYYCARGRVNSGYDWGPNFDSWGQGALVTVSS VL: DIVLTQAPSVSVSPGQTASITCSGDRLGEKFASWYQQKPGQSPVLVIYEDSKRPSGIPDRFSGSNSGNTATLTISGTQIMDEGDFFCQAWDSSTVVFGGGTKLTVLG :: 25.6 fold over background
TRL845 (antibody, V domains shown) VH: QVQLVQSGGDLVQPGGSLRLSCAASGFTFSRYSMNWVRQAPGMGLEWVAYISDTSRTIYYADSVKGRFTISRDNAKNSLYLQMKSLRDEDTAVYYCARDPDTPFVRAFDSWGQGTLVTVSS VL: DIVLTQSPSFLSASVGDRVTITCRASQLISSYFAWYQQKPGKPPKLLIYAASTLQSGVPSRFSGSGSGTQFSLTISSLQPEDFATYYCQQLNSYPPITFGQGTRLEIKR :: 25.6 fold over background

Form field: reported fold reactivity over background of TRL848 (antibody, V domains shown) VH: QVQLLESGGDVVQPGTSLRLSCAASGFSLWTSGMHWVRQAPGKGLEWVAVMSYDETKKYYADSVRGRFSISRDNSRNTLYLQMNSLRVEDTAVYFCAKPRLDYLDYFHAADSWGQGTLVSVSS VL: DIVLTQPPSVSVAPGQTATITCGGNYIGSKSVNWYQQRPGHAPVLVVYDDSDRPSGIPDRFSGSNSRSTATTATLTISRVEAGDEADYYCQVWETSEDLWVFGGGTKLTVLG
25.6 fold over background

Fill in: fold reactivity over background of TRL053 (antibody, V domains shown) VH: QVQLVQSGAEVRKPGSSVKVSCKVSGGIIRKYAINWVRQAPGQGLEWMGGIIAIFNTANYAQKFQGRVTITADESTSTVYMELSSLRSEDTALYYCARGMNYYSDYFDYWGQGSLVTVSP VL: EIVLTQSPGTLSLSPGERATLSCRASQSVRSNNLAWYQHKPGQAPRLLIFGASSRATGIPDRFSGSGSGTDFTLTISRLEPEDFAVYYCQQYGSSPALTFGGGTKVEIKR is ___
1 fold over background
